assaySystem: Fibroblast growth factor 10 (Homo sapiens)
measurementDescription: FGF10 binders on small-molecule microarrays, primary screen, biochemical, small-molecule microarray, 635 nm fluorescence (AID 1102)
measurementSetup: FGF10 binding, fluorescence 635 nm, higher = more signal
# reported composite z-score; entries follow
metric: composite z-score

- [N-]=[N+]=NCc1ccccc1C[C@]1(C(=O)N2CCCCC2)COC(c2ccc(OCCCO)cc2)=N1: 0.786
- COC(=O)[C@H]1N=C(c2ccc(OCCCO)cc2)O[C@H]1c1ccccc1N=[N+]=[N-]: -0.0781
- Cc1c(NC(=O)/C(C#N)=C/C=C/c2ccc([N+](=O)[O-])cc2)c(=O)n(-c2ccccc2)n1C: 1.19
- C=C(COC)/C(=C/C[C@@H](OC(=O)c1ccncc1)c1ccccc1OCCO)c1cnc2ccccc2c1: 1.47
- COc1ccc([Si](C)(C)[C@H]2[C@H](CCO)O[C@@]3(C(=O)N(Cc4ccccc4)c4ccc(NC(=O)[C@H](C)O)cc43)[C@@H]2C)cc1: 0.139
- COC(=O)c1c2oc(c1C(=O)OC)C(=O)N[C@H](Cc1ccccc1)Cn1cc(nn1)C1(CCCCC1)NC(=O)N[C@H](CO)CC2: 0.495
- COc1cc(Cc2cc3c(c(CCc4ccccc4)n2)[Si](C(C)C)(C(C)C)O[C@H]3c2ccccc2)cc(OC)c1OC: -0.507

====

# reported z-score; entries follow
measurementDescription: Plasmodium falciparum growth inhibition, primary screen, strain 3D7, DAPI fluorescence, 100 nL (AID 1184);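 further: parasites grown inside human red blood cells in medium with human serum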
measurementSetup: P. falciparum 3D7 growth, 3 d, higher = more signal
metric: z-score

• [N-]=[N+]=Nc1ccccc1C[C@]1(C(N)=O)COC(c2ccc(OCCCO)cc2)=N1 = -1.88
• O=C(O)C1=CC[C@H]2C(=O)N(c3ccccc3)C(=O)[C@@H]12 = 0.0472
• CCCCC=C[C@@H](NC(=O)C(C)(C)C)c1ccccc1 = -0.501
• CN(C)CCCCCCNC(=O)[C@@H]1C[C@@H]2C(=O)N[C@@H](CCCC[N+](C)(C)C)C(=O)N2[C@@H]1c1cccc(OCCO)c1 = -0.143
• COCCCNC(=O)[C@@]1(Cc2ccccc2I)c2ccccc2C(=O)N(Cc2ccccc2C(F)(F)F)[C@H]1c1ccc(CO)cc1 = -0.821
• O=C1N(Cc2ccccc2)c2ccccc2C[C@@]12N=C(c1ccc(OCCCO)cc1)O[C@H]2c1ccccc1 = -2.52
• COc1ccc(C(=O)Nc2cccc(CN3C(=O)[C@]4(O[C@H](CC(=O)N(CCO)Cc5ccccc5)[C@@H]([Si](C)(C)c5ccc(OC)cc5)[C@@H]4C)c4ccccc43)c2)cc1 = -2.49
• C=CCN1C(=O)[C@]2(O[C@H](CCO)[C@@H]([Si](C)(C)c3ccc(OC)cc3)[C@@H]2C)c2cc(N3C(=O)c4ccccc4Oc4ccccc43)ccc21 = -2.42
• COCCCNC(=O)[C@@]1(Cc2ccccc2I)c2ccccc2C(=O)N(Cc2ccccc2OC)[C@H]1c1ccc(CO)cc1 = -1.07
• COC(=O)C(CC#Cc1ccc2c(c1)[C@]1(C(=O)N2)[C@H](C(=O)N2CCCCCCC2)[C@H]2C(=O)O[C@H](c3ccccc3)[C@H](c3ccccc3)N2[C@@H]1c1ccc(OCCO)cc1)C(=O)OC = -2.14
• COc1cc(CO)cc(I)c1O[C@H]1C=C(C(=O)NCCO)C[C@@H](N(CCN2CCOCC2)C(=O)C2CCCO2)[C@@H]1O (stereo partly drawn) = 0.0945
• C=CCC(OC(C)=O)[C@@H]1[C@@H](N(Cc2ccc(-c3ccccc3)cc2)C(=O)Cc2ccc(OC)cc2)c2cc(OCCCO)ccc2N1C(=O)Cc1ccc(OC)cc1 (stereo partly drawn) = -1.97
• CCOC(=O)C1=CCC(c2ccncc2)N(S(=O)(=O)c2ccc(C)cc2)C1 (stereo not drawn) = -0.886
• CC1C2C(CCCO)=CC(C3C(=O)N(C)C(=O)C23)N1Cc1cccc(OC(F)(F)F)c1 (stereo not drawn) = -1.7
• COc1ccc([Si](C)(C)[C@H]2[C@H](CC(=O)N3CCC[C@H]3CO)O[C@@]3(C(=O)N(Cc4cccc(N5CCCCC5=O)c4)c4ccccc43)[C@@H]2C)cc1 = -1.33
• COC(=O)[C@@]1(Cc2ccc(F)cc2)[C@H]2c3cc(C(=O)N4CCCC4)n(CCc4c[nH]c5cc(F)ccc45)c3C[C@H]2CN1C(=O)c1ccccc1 = -1.4
• COC(=O)[C@@]1(Cc2ccc(F)cc2)[C@H]2c3cc(C(=O)N4CCCC4)n(Cc4ccc(C(F)(F)F)nc4)c3C[C@H]2CN1C(=O)c1ccccc1 = -0.532
• CN1C(=O)C2C=CC(C(O)c3cccs3)N(N(c3ccccc3)c3ccccc3)C2C1=O (stereo not drawn) = -0.0266

====

measurementDescription: E. coli acrAB mutant growth effects, primary screen, E. coli filamentation inducers, strain DRC39, OD650, 48 h (AID 1179);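 further: screen aims at cell division blockers that make cells filament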
measurementSetup: E. coli DRC39 delta-acrAB growth, higher = more signal, called active from +8 up or from −8 down
Decision: z-score >= 0.3 yields yes, all other cases yield no.

• CCCCN1CC=CC23O[C@@H]4/C=C\CCCOC(=O)C4[C@H]2C(=O)N(CCCCCCO)[C@@H]3C1=O (some centres not stated) = yes
• O=C1N(Cc2ccccc2)c2ccccc2C[C@@]12N=C(c1ccc(OCCCO)cc1)O[C@H]2c1ccccc1 = no
• CC(C)(C)OC(=O)CC[C@]1(C(N)=O)N=C(c2ccc(OCCCO)cc2)O[C@H]1c1ccccc1N=[N+]=[N-] = yes
• CO[C@H]1O[C@H](CO)[C@@H](OC(=O)Nc2cccc(F)c2)[C@H](OC(=O)Nc2ccc3c(c2)OCO3)[C@@H]1OC(=O)Nc1ccc2c(c1)OCO2 = yes
• CC1(C)OB(/C=C\CC(OC(=O)c2ccncc2)c2ccccc2)OC1(C)C (configuration not stated) = no
• CCCCCCc1nc(Cc2cc(OC)c(OC)c(OC)c2)c(C)c2c1[Si](C(C)C)(C(C)C)OC2 = yes
• O=C(N1CCOCC1)[C@]1(CCS(=O)(=O)c2ccccc2)N=C(c2ccc(OCCCO)cc2)O[C@@H]1c1ccccc1 = yes
• CCCN1C(=O)[C@@]2(c3ccc([N+](=O)[O-])cc3)CC(=O)N(C3CCCCC3)[C@@H]2c2ccc(CO)cc21 = no
• C=CC[C@H](O)c1ccc(O)c2ccccc12 = yes
• CCCCN1CC=CC23O[C@@H]4C=CCCOC(=O)C4[C@H]2C(=O)N(CCO)[C@@H]3C1=O (some centres not stated) = no
• COC(=O)C(CC#Cc1ccc2c(c1)[C@]1(C(=O)N2)[C@H](c2ccc(OCCO)cc2)N2[C@H](c3ccccc3)[C@H](c3ccccc3)OC(=O)[C@H]2[C@@H]1C(N)=O)C(=O)OC = no
• C=CCNC(=O)[C@H]1[C@@H]2C(=O)O[C@@H](c3ccccc3)[C@@H](c3ccccc3)N2[C@@H](c2ccc(O)cc2)[C@]12C(=O)N(C(=O)OCCOC)c1ccc(C#Cc3ccc(OC)cc3)cc12 = no

====

measurementDescription: E. coli acrAB mutant growth effects, primary screen, E. coli filamentation inducers, strain DRC39, OD650, 48 h (AID 1179);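 further: screen aims at cell division blockers that make cells filament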
measurementSetup: E. coli DRC39 delta-acrAB growth, higher = more signal, called active from +8 up or from −8 down
Activity calls are given as the source filed them.
metric: z-score

• COC(=O)[C@@]1(Cc2ccc(F)cc2)[C@H]2c3cc(C(=O)N4CCCC4)n(Cc4ccc(OC(F)(F)F)cc4)c3C[C@H]2CN1C(=O)c1ccccc1 = -0.678 (inactive)
• COc1ccc(C(O)C2C=CC3C(=O)N(C)C(=O)C3N2Nc2ccccc2)cc1 (stereo not drawn) = -0.605 (inactive)
• COCCCNC(=O)[C@@]1(Cc2ccccc2I)c2ccccc2C(=O)N(Cc2ccccc2OC)[C@H]1c1ccc(CO)cc1 = -0.113 (inactive)

====

measurementDescription: CREB reporter modulators without forskolin, primary screen, cell-based, PC12, CRE-LacZ reporter, unstimulated (AID 1145)
measurementSetup: no forskolin, luminescence, 4.5 h, called active from +8 up or from −8 down
Active and inactive are the calls of the source.
Labels: label 1 (active), label 0 (inactive)

- O=C1NC(=O)C2C1C=CC(C(O)C(O)CO)N2Nc1ccccn1 (stereo not given): label 0
- C=CCN1C(=O)[C@@]2(O[C@@H](CCO)[C@H]([Si](C)(C)c3ccc(OC)cc3)[C@H]2C)c2cc(N3CCCCC3=O)ccc21: label 1
- COC(=O)c1ccc(OC)c(/C=C\CC(OC(=O)c2ccncc2)c2ccccc2)c1 (stereo not given): label 1
- C=C[C@H](OC)[C@@H](O)c1ccc(OC)c(O)c1: label 0
- O=C1OC[C@@H](c2ccccc2)n2cc(/C=C/c3ccccc3)cc21: label 1
- CN(C)CCCC[C@@H]1NC(=O)[C@H]2C[C@@H](C(=O)NCCCCCCNC(=O)CS)[C@@H](c3cccc(OCCO)c3)N2C1=O: label 0
- COC(=O)[C@@]1(Cc2ccccc2)[C@H]2c3cc(C(=O)N(C)C)n(Cc4nc5ccccc5[nH]4)c3C[C@H]2CN1C(=O)c1ccccc1: label 0
- C=CC[C@]12N=C(c3ccc(OCCCO)cc3)O[C@H]1c1ccccc1N(CCC)C2=O: label 0
- COc1ccc([Si](C)(C)[C@H]2[C@H](CC(=O)N(CCO)Cc3ccccc3)O[C@@]3(C(=O)N(Cc4cccc(N5CCCCC5=O)c4)c4ccccc43)[C@@H]2C)cc1: label 0
- CC(C)c1ccc(NN2C(C(O)C3CCCCC3)C=CC3C(=O)N(c4ccccc4)C(=O)C32)cc1 (stereo not given): label 0
- COC(=O)[C@@]1(Cc2ccc(F)cc2)[C@H]2c3cc(C(=O)N(C)C)n(CCF)c3C[C@H]2CN1C(=O)c1ccccc1: label 0
- CCCCN1CC=CC23O[C@@H]4C=CCCOC(=O)C4[C@H]2C(=O)N(CCO)[C@@H]3C1=O (stereo not given in full): label 0
- CC(C)N1CC=CC23O[C@@H]4/C=C\CCCOC(=O)C4[C@H]2C(=O)N(C(C)CO)[C@@H]3C1=O (stereo not given in full): label 0
- COC(=O)[C@@]1(Cc2ccc(F)cc2)[C@H]2c3cc(C(=O)N4CCCC4)n(Cc4ccc(OC(F)(F)F)cc4)c3C[C@H]2CN1C(=O)c1ccccc1: label 0
- COc1cc(CO)cc(I)c1O[C@H]1C=C(C(=O)NCCO)C[C@@H](N(CCN2CCOCC2)C(=O)C2CCCO2)[C@@H]1O (stereo not given in full): label 0
- CCOC(=O)C1=CC[C@@H](c2ccccc2)N(S(=O)(=O)c2ccc(C)cc2)[C@@H]1C#N: label 0
- COC(=O)[C@@]1(Cc2ccccc2)[C@H]2c3cc(C(=O)N(C)C)n(Cc4ccc(Cl)c(C(F)(F)F)c4)c3C[C@H]2CN1C(=O)c1ccccc1: label 0
- COC(=O)[C@@]1(Cc2ccc(F)cc2)[C@H]2c3cc(C(=O)N(C)C)n(Cc4ccsc4Br)c3C[C@H]2CN1C(=O)c1ccccc1: label 0
- COc1ccc([Si](C)(C)[C@H]2[C@H](CC(=O)N3CCC[C@H]3CO)O[C@@]3(C(=O)N(C)c4c(Br)cc(C)cc43)[C@@H]2C)cc1: label 0
- COC(=O)[C@H]1N=C(c2ccc(OCCCO)cc2)O[C@H]1c1ccccc1N=[N+]=[N-]: label 0
- O=C1NC(=O)C2C1C=CC(C(O)c1ccc(F)cc1)N2Nc1ccc(Cl)cc1Cl (stereo not given): label 0
- O=C1NC(=O)C2C1C=CC(C(O)C1CCCCC1)N2Nc1ccccn1 (stereo not given): label 0
- C=CCC(OC(C)=O)[C@@H]1[C@@H](N(Cc2ccc(-c3ccccc3)cc2)C(=O)Cc2ccc(OC)cc2)c2cc(OCCCO)ccc2N1C(=O)c1ccc2ccccc2c1 (stereo not given in full): label 0
- OCCCc1cc[n+](Cc2cc3c(cc2Br)OCO3)cc1: label 0
- COc1ccc([Si](C)(C)[C@@H]2[C@@H](CC(=O)N3Cc4ccccc4C[C@H]3CO)O[C@]3(C(=O)N(Cc4ccc(I)cc4)c4ccccc43)[C@H]2C)cc1: label 0
- [N-]=[N+]=Nc1ccccc1C[C@@]1(C(=O)NCc2ccccc2)N=C(c2ccc(OCCCO)cc2)O[C@@H]1c1ccccc1: label 0
- [N-]=[N+]=Nc1ccccc1C[C@]1(C(N)=O)COC(c2ccc(OCCCO)cc2)=N1: label 0
- O=C(NC1CC1)[C@@H]1c2ccccc2C(=O)N(C2CCCCC2)[C@H]1c1ccc(CO)cc1: label 0
- CC(C)C[C@H]1NC(=O)CNC(=O)[C@@]23C(=O)N[C@@H](Cc4ccccc4)C2[C@H](C)[C@@]2(C)O[C@H]2C3/C=C/C/C=C\CNC1=O (stereo not given in full): label 0
- [N-]=[N+]=NCc1ccccc1[C@H]1OC(c2ccc(OCCCO)cc2)=N[C@@]1(CCS(=O)(=O)c1ccccc1)C(=O)O: label 0
